Target: Gamma-aminobutyric acid receptor subunit alpha-2 (Rattus norvegicus, UniProt P18508+P23576+P63138)
Sequence (P23576 whole entry, one chain of several): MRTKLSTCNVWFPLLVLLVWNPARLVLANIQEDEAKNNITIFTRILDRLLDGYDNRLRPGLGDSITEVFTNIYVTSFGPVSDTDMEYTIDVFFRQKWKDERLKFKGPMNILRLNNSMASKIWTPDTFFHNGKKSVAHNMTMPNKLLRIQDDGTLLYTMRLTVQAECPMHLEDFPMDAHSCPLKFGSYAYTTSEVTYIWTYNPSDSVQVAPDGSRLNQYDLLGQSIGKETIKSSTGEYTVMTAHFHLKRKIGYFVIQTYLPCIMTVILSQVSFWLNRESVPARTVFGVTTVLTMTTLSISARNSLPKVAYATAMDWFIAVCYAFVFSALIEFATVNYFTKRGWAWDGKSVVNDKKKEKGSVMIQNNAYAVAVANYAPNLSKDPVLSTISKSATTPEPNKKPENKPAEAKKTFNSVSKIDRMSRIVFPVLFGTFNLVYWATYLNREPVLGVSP
Test: Displacement of [3H]flumazenil from rat GABA-A alpha-2-beta-2-gamma-2 receptor expressed in HEK293 cells
OBSERVATION TYPE: Ki (nM)
Report as a plain number; the unit nM is understood.

# example entries with known answers
## Task Note down Ki recorded for O=C(NC1CCc2cc([N+](=O)[O-])ccc21)C(=O)c1c[nH]c2ccc([N+](=O)[O-])cc12 (racemic)
## Result 513

## Task Given the compound O=C(NC1CCc2cc(F)ccc21)C(=O)c1c[nH]c2ccc([N+](=O)[O-])cc12 (racemic) , write its reported Ki.
## Result 810

## Task Hello, please tell me recorded Ki for this one: O=C(N[C@@H]1CCc2ccccc21)C(=O)c1c[nH]c2ccccc12
## Result 3100

Now take the following compound into account.
## Task For the compound COc1ccc(CNC(=O)C(=O)c2c[nH]c3ccc([N+](=O)[O-])cc23)cc1 , give its reported Ki.
## Result 1650
